Data provenance: patent US8952024B2

test system: green foxtail (Setaria viridis); assay: Test B pre-/postemergence plant response; assay type: in vivo; conditions: Preemergence, 125 g ai/ha; 0 to 100 scale
Below, each entry is listed with its recorded Foxtail, Green plant response rating.

Example molecules with recorded Foxtail, Green plant response rating:
>>> recorded_result("CCCCc1ncc(C(=O)C2=C(O)CCCC2=O)c(=O)n1-c1ccccc1")
85
>>> recorded_result("Cc1c(Cl)cccc1-n1c(-c2ccccc2)ncc(C(=O)C2=C(O)CCCC2=O)c1=O")
85

Data request: Assign Foxtail, Green plant response rating to the following record: `O=C1CCCC(O)=C1C(=O)c1cnc(-c2ccccc2)n(-c2cccc(Br)c2)c1=O`
Data returned: 85

Data request: Assign Foxtail, Green plant response rating to the following record: `Cc1cc(C)cc(-n2c(-c3ccccc3)ncc(C(=O)C3=C(O)CCCC3=O)c2=O)c1`
Data returned: 100

* * *

test system: morningglory (Ipomoea coccinea); experiment: Test B pre-/postemergence plant response; type: in vivo; details: Postemergence, 31 g ai/ha; 0 to 100 scale (0 no effect, 100 complete control)
Below, each entry is listed with its recorded Plant response rating, Morningglory.
# respond with the number and nothing more

>>> recorded_result("Cc1cc(-n2c(-c3cccc(F)c3)ncc(C(=O)C3=C(O)CCCC3=O)c2=O)ccc1F")
40
>>> recorded_result("COCCCn1c(-c2cccc(Br)c2)ncc(C(=O)C2=C(O)CCCC2=O)c1=O")
0
>>> recorded_result("O=C1CCCC(O)=C1C(=O)c1cnc(-c2ccccc2)n(C2CCSCC2)c1=O")
90

Data request: Look up and report measured Plant response rating, Morningglory (morningglory (Ipomoea coccinea)) for the following compound: `CC1(C)CC(=O)C(C(=O)c2cnc(-c3ccccc3)n(-c3ccccc3)c2=O)=C(O)C1`
Data returned: 95

* * *

System: bermudagrass (Cynodon dactylon)
Experiment: Test B pre-/postemergence plant response
Type: in vivo
Details: Postemergence, 31 g ai/ha; scale 0 to 100 (0 no effect, 100 complete control)
Source text: […] Treated plants and controls were maintained in a greenhouse for 13 to 15 days, after which time all treated plants were visually evaluated and compared to controls. […]
Below, each entry is listed with its recorded Plant response rating, Bermudagrass.

>>> recorded_result("Cc1ccc(-n2c(-c3ccccc3)ncc(C(=O)C3=C(O)CCCC3=O)c2=O)cc1")
60
>>> recorded_result("Cc1cccc(Cl)c1-n1c(-c2ccccc2)ncc(C(=O)C2=C(O)CCCC2=O)c1=O")
80
>>> recorded_result("CCCCc1ncc(C(=O)C2=C(O)CCCC2=O)c(=O)n1-c1ccccc1")
70
>>> recorded_result("Cc1ccc(F)cc1-n1c(-c2ccccc2)ncc(C(=O)C2=C(O)CCCC2=O)c1=O")
80

Now for another entry.
Data request: Assign Plant response rating, Bermudagrass to the following record: `O=C1CCCC(O)=C1C(=O)c1cnc(-c2ccccc2)n(-c2ccccc2F)c1=O`
Data returned: 40

* * *

tested on: bermudagrass (Cynodon dactylon); assay: Test B pre-/postemergence plant response; type: in vivo; conditions: Postemergence, 31 g ai/ha; 0 to 100 scale (0 no effect, 100 complete control)
Below, each entry is listed with its recorded Plant response rating, Bermudagrass.
# respond with the number and nothing more

>>> recorded_result("CCc1ccc(-n2c(-c3ccccc3)ncc(C(=O)C3=C(O)CCCC3=O)c2=O)cc1")
95
>>> recorded_result("O=C1CCCC(O)=C1C(=O)c1cnc(-c2ccc(F)cc2)n(C2CCCCC2)c1=O")
95

Data request: Assign Plant response rating, Bermudagrass to the following record: `CCCCn1c(-c2cccc(Cl)c2)ncc(C(=O)C2=C(O)CCCC2=O)c1=O`
Data returned: 85

Data request: Assign Plant response rating, Bermudagrass to the following record: `O=C1CCCC(O)=C1C(=O)c1cnc(-c2cccs2)n(C2CCCCC2)c1=O`
Data returned: 10

Data request: Assign Plant response rating, Bermudagrass to the following record: `O=C1CCCC(O)=C1C(=O)c1cnc(-c2cc(F)cc(F)c2)n(C2CCCCC2)c1=O`
Data returned: 100

Data request: Assign Plant response rating, Bermudagrass to the following record: COCCn1c(-c2cccc(C)c2)ncc(C(=O)C2=C(O)C3CCC(C3)C2=O)c1=O (centres unmarked)
Data returned: 95

Data request: Assign Plant response rating, Bermudagrass to the following record: `Cc1ccccc1-n1c(-c2cc(F)cc(F)c2)ncc(C(=O)C2=C(O)CCCC2=O)c1=O`
Data returned: 95

* * *

system: wild oat (Avena fatua); test: Test B pre-/postemergence plant response; assay type: in vivo; settings: Postemergence, 250 g ai/ha; scale 0 to 100 (0 no effect, 100 complete control); 13 to 15 days
recorded-metric: Plant response rating, Oat, Wild
# respond with the number and nothing more

Example compounds with recorded Plant response rating, Oat, Wild:
>>> recorded_result("CCCn1c(-c2cc(F)cc(F)c2)ncc(C(=O)C2=C(O)CCCC2=O)c1=O [Compound 152]")
85
>>> recorded_result("CCCn1c(-c2cccc(C(F)(F)F)c2)ncc(C(=O)C2=C(O)CCCC2=O)c1=O [Compound 155]")
70
>>> recorded_result("CCc1ccccc1-n1c(-c2ccccc2)ncc(C(=O)C2=C(O)CCCC2=O)c1=O [Compound 255]")
90
>>> recorded_result("COCCn1c(-c2cccc(C)c2)ncc(C(=O)C2=C(O)C3CCC(C3)C2=O)c1=O (centres unmarked) [Compound 233]")
60
>>> recorded_result("CCCCn1c(-c2cccc(Cl)c2)ncc(C(=O)C2=C(O)CCCC2=O)c1=O [Compound 146]")
70

Now for another entry.
Data request: Assign Plant response rating, Oat, Wild to the following record: CCn1c(-c2ccccc2)ncc(C(=O)C2=C(O)C3CCC(C3)C2=O)c1=O (centres unmarked) [Compound 239]
Data returned: 30

* * *

test system: large crabgrass (Digitaria sanguinalis); experiment: Test B pre-/postemergence plant response; format: in vivo; conditions: Postemergence, 125 g ai/ha; visual rating after 13 to 15 days, scale 0 (no effect) to 100 (complete control)
Below, each entry is listed with its recorded Plant response rating, Crabgrass, Large.
# respond with the number and nothing more

Example compounds with recorded Plant response rating, Crabgrass, Large:
>>> recorded_result("CCCCc1ncc(C(=O)C2=C(O)CCCC2=O)c(=O)n1-c1ccc(C)cc1")
90
>>> recorded_result("CCCn1c(-c2cccs2)ncc(C(=O)C2=C(O)CCCC2=O)c1=O")
75
>>> recorded_result("Cc1ccccc1-c1ncc(C(=O)C2=C(O)CCCC2=O)c(=O)n1-c1ccccc1")
80

Data request: Assign Plant response rating, Crabgrass, Large to the following record: `Cn1c(-c2ccccc2)ncc(C(=O)C2=C(O)CCCC2=O)c1=O`
Data returned: 80

* * *

system: soybean (Glycine max); assay: Test B pre-/postemergence plant response; type: in vivo; settings: Preemergence, 125 g ai/ha; 0 to 100 scale
Please respond with MET when measured Soybean plant response rating is strictly beneath 20, and with NOT MET in all other cases.

>>> discrete_label("Cc1cccc(Cl)c1-n1c(-c2ccccc2)ncc(C(=O)C2=C(O)CCCC2=O)c1=O [Compound 46]")
"MET"
>>> discrete_label("Cc1ccc(F)cc1-n1c(-c2ccccc2)ncc(C(=O)C2=C(O)CCCC2=O)c1=O [Compound 44]")
"MET"

Data request: In the record for Cc1ccccc1-n1c(-c2ccccc2)ncc(C(=O)C2=C(O)CCCC2=O)c1=O [Compound 12] , is Soybean plant response rating less than 20?
Data returned: NOT MET

Data request: In the record for Cc1cc(C)cc(-n2c(-c3ccccc3)ncc(C(=O)C3=C(O)CCCC3=O)c2=O)c1 [Compound 33] , is Soybean plant response rating less than 20?
Data returned: NOT MET

* * *

system: corn (Zea mays); assay: Test B pre-/postemergence plant response; format: in vivo; settings: Preemergence, 125 g ai/ha; 0 to 100 scale
Below, each entry is listed with its recorded Corn plant response rating.

>>> recorded_result("O=C1CCCC(O)=C1C(=O)c1cnc(-c2ccccc2)n(-c2cccc(Br)c2)c1=O")
0
>>> recorded_result("Cc1c(Cl)cccc1-n1c(-c2ccccc2)ncc(C(=O)C2=C(O)CCCC2=O)c1=O")
0
>>> recorded_result("Cc1ccccc1-n1c(-c2ccccc2)ncc(C(=O)C2=C(O)CCCC2=O)c1=O")
15

Data request: Assign Corn plant response rating to the following record: `Cc1cc(C)cc(-n2c(-c3ccccc3)ncc(C(=O)C3=C(O)CCCC3=O)c2=O)c1`
Data returned: 0

* * *

test system: galium (catchweed bedstraw, Galium aparine); experiment: Test B pre-/postemergence plant response; type: in vivo; conditions: Preemergence, 125 g ai/ha; 0 to 100 scale
recorded-metric: Galium plant response rating
# respond with the number and nothing more

Data request: Assign Galium plant response rating to the following record: `Cc1ccccc1-n1c(-c2ccccc2)ncc(C(=O)C2=C(O)CCCC2=O)c1=O`
Data returned: 90

Data request: Assign Galium plant response rating to the following record: `O=C1CCCC(O)=C1C(=O)c1cnc(-c2ccccc2)n(-c2cccc(Br)c2)c1=O`
Data returned: 85

Data request: Assign Galium plant response rating to the following record: `Cc1c(Cl)cccc1-n1c(-c2ccccc2)ncc(C(=O)C2=C(O)CCCC2=O)c1=O`
Data returned: 85

Data request: Assign Galium plant response rating to the following record: `O=C1CCCC(O)=C1C(=O)c1cnc(-c2ccccc2)n(-c2ccccc2F)c1=O`
Data returned: 90
